Protocol description: activity coefficient (dimensionless); of the first substance listed, at infinite dilution; xn = mol fraction of the nth substance listed
Condition context: 395.95 K; Liquid; Chromatography; x1 = 0
activity coefficient: recorded values
Output: the number by itself.

OC1CCCCC1 [cyclohexanol] + CCCCCC[n+]1ccn(C)c1.O=S(=O)([N-]S(=O)(=O)C(F)(F)F)C(F)(F)F: 1.2
CCCCCCCC=O [octanal] + CCCCCC[n+]1ccn(C)c1.O=S(=O)([N-]S(=O)(=O)C(F)(F)F)C(F)(F)F: 1.97
CCCCCCC=O [heptanal] + CCCCCC[n+]1ccn(C)c1.O=S(=O)([N-]S(=O)(=O)C(F)(F)F)C(F)(F)F: 0.9

Which value of activity coefficient has been reported for CCCCCCO [hexan-1-ol] + CCCCCC[n+]1ccn(C)c1.O=S(=O)([N-]S(=O)(=O)C(F)(F)F)C(F)(F)F in the records?
1.56

###

Protocol description: activity coefficient (dimensionless); of the first substance listed, at infinite dilution; xn = mol fraction of the nth substance listed
Condition context: 323.05 K; Liquid; Chromatography; x1 = 0
Label 1 when activity coefficient is at or above 2; anything below gets 0.

# bool: activity coefficient of CCCCC [pentane] + CCCCCC[n+]1ccn(C)c1.O=S(=O)([N-]S(=O)(=O)C(F)(F)F)C(F)(F)F >= 2
1

Decide: activity coefficient of ClC(Cl)Cl [trichloromethane] + CCCCCC[n+]1ccn(C)c1.O=S(=O)([N-]S(=O)(=O)C(F)(F)F)C(F)(F)F >= 2?
0

Is activity coefficient at least 2? Consider CCO [ethanol] + CCCCCC[n+]1ccn(C)c1.O=S(=O)([N-]S(=O)(=O)C(F)(F)F)C(F)(F)F
0

Does the reported activity coefficient for CO [methanol] + CCCCCC[n+]1ccn(C)c1.O=S(=O)([N-]S(=O)(=O)C(F)(F)F)C(F)(F)F fall at or above the 2 mark?
0

Does the compound CCCO [propan-1-ol] + CCCCCC[n+]1ccn(C)c1.O=S(=O)([N-]S(=O)(=O)C(F)(F)F)C(F)(F)F have recorded activity coefficient that is 2 or more?
0

###

The entries below are paired with their reported activity coefficient.
Protocol description: activity coefficient (dimensionless); of the first substance listed, at infinite dilution; xn = mol fraction of the nth substance listed
Condition context: 333.35 K; Liquid; Chromatography; x1 = 0
The answer should be a number; do not append a unit.

CC(C)(C)O [2-methylpropan-2-ol] + CCCCCC[n+]1ccn(C)c1.O=S(=O)([N-]S(=O)(=O)C(F)(F)F)C(F)(F)F: 1.21
C=CCCCCCCC [1-nonene] + CCCCCC[n+]1ccn(C)c1.O=S(=O)([N-]S(=O)(=O)C(F)(F)F)C(F)(F)F: 11.1
CCc1ccccc1 [ethylbenzene] + CCCCCC[n+]1ccn(C)c1.O=S(=O)([N-]S(=O)(=O)C(F)(F)F)C(F)(F)F: 1.55

Next item in the queue.
For CCC=O [propanal] + CCCCCC[n+]1ccn(C)c1.O=S(=O)([N-]S(=O)(=O)C(F)(F)F)C(F)(F)F , what is its reported activity coefficient?
0.439

###

Protocol description: activity coefficient (dimensionless); of the first substance listed, at infinite dilution; xn = mol fraction of the nth substance listed
Condition context: 364.45 K; Liquid; Chromatography; x1 = 0
Measured activity coefficient by item
Hey, just send me the number, nothing else.

CCCCCCCC=O [octanal] + CCCCCC[n+]1ccn(C)c1.O=S(=O)([N-]S(=O)(=O)C(F)(F)F)C(F)(F)F: 1.92
CCCCCCC=O [heptanal] + CCCCCC[n+]1ccn(C)c1.O=S(=O)([N-]S(=O)(=O)C(F)(F)F)C(F)(F)F: 1.02
CCCCC=O [pentanal] + CCCCCC[n+]1ccn(C)c1.O=S(=O)([N-]S(=O)(=O)C(F)(F)F)C(F)(F)F: 1.01

Please look at the following compound next.
So what's the measured activity coefficient for this one? CCCCCC=O [hexanal] + CCCCCC[n+]1ccn(C)c1.O=S(=O)([N-]S(=O)(=O)C(F)(F)F)C(F)(F)F
1.24

###

Protocol description: activity coefficient (dimensionless); of the first substance listed, at infinite dilution; xn = mol fraction of the nth substance listed
Condition context: 333.25 K; Liquid; Chromatography; x1 = 0
Listing: activity coefficient of selected compounds
Keep the answer to the number alone.

Previously resolved entries follow.
CCCC(=O)OC [methyl butanoate] + CCCCCC[n+]1ccn(C)c1.O=S(=O)([N-]S(=O)(=O)C(F)(F)F)C(F)(F)F: 0.874
CCCCCCCC [octane] + CCCCCC[n+]1ccn(C)c1.O=S(=O)([N-]S(=O)(=O)C(F)(F)F)C(F)(F)F: 12.2
CCC(=O)OC [methyl propanoate] + CCCCCC[n+]1ccn(C)c1.O=S(=O)([N-]S(=O)(=O)C(F)(F)F)C(F)(F)F: 0.683

Look up activity coefficient: CCCCCCC [heptane] + CCCCCC[n+]1ccn(C)c1.O=S(=O)([N-]S(=O)(=O)C(F)(F)F)C(F)(F)F
9.09

Which activity coefficient is listed for CCCCCO [pentan-1-ol] + CCCCCC[n+]1ccn(C)c1.O=S(=O)([N-]S(=O)(=O)C(F)(F)F)C(F)(F)F ?
2.18

###

Listed here are compounds together with their documented activity coefficient.
Protocol description: activity coefficient (dimensionless); of the first substance listed, at infinite dilution; xn = mol fraction of the nth substance listed
Condition context: 374.95 K; Liquid; Chromatography; x1 = 0

CCCCC=O [pentanal] + CCCCCC[n+]1ccn(C)c1.O=S(=O)([N-]S(=O)(=O)C(F)(F)F)C(F)(F)F: 0.99
CCCCCC=O [hexanal] + CCCCCC[n+]1ccn(C)c1.O=S(=O)([N-]S(=O)(=O)C(F)(F)F)C(F)(F)F: 1.26
C=CCCCCCCCCCC [1-dodecene] + CCCCCC[n+]1ccn(C)c1.O=S(=O)([N-]S(=O)(=O)C(F)(F)F)C(F)(F)F: 16.9
CCCCCO [pentan-1-ol] + CCCCCC[n+]1ccn(C)c1.O=S(=O)([N-]S(=O)(=O)C(F)(F)F)C(F)(F)F: 1.51
CCCCCCO [hexan-1-ol] + CCCCCC[n+]1ccn(C)c1.O=S(=O)([N-]S(=O)(=O)C(F)(F)F)C(F)(F)F: 1.82
CCCCCCC=O [heptanal] + CCCCCC[n+]1ccn(C)c1.O=S(=O)([N-]S(=O)(=O)C(F)(F)F)C(F)(F)F: 0.97
OC1CCCCC1 [cyclohexanol] + CCCCCC[n+]1ccn(C)c1.O=S(=O)([N-]S(=O)(=O)C(F)(F)F)C(F)(F)F: 1.43

For the next question, use this compound.
Reported activity coefficient for CCCCCCCC=O [octanal] + CCCCCC[n+]1ccn(C)c1.O=S(=O)([N-]S(=O)(=O)C(F)(F)F)C(F)(F)F : what is it?
1.94

###

Protocol description: activity coefficient (dimensionless); of the first substance listed, at infinite dilution; xn = mol fraction of the nth substance listed
Condition context: 354.25 K; Liquid; Chromatography; x1 = 0
# cutoff 2 applies to activity coefficient; >= gives MET, < gives NOT MET

CCCCCCCCCCCC [dodecane] + CCCCCC[n+]1ccn(C)c1.O=S(=O)([N-]S(=O)(=O)C(F)(F)F)C(F)(F)F: MET

API: above_or_equal(metric=activity coefficient, cutoff=2) for item CC(C)=O [acetone] + CCCCCC[n+]1ccn(C)c1.O=S(=O)([N-]S(=O)(=O)C(F)(F)F)C(F)(F)F
NOT MET

Is the recorded value of activity coefficient equal to or greater than 2 for this compound? CCc1ccccc1 [ethylbenzene] + CCCCCC[n+]1ccn(C)c1.O=S(=O)([N-]S(=O)(=O)C(F)(F)F)C(F)(F)F
NOT MET

Say whether C1=CCCC=C1 [1,3-cyclohexadiene] + CCCCCC[n+]1ccn(C)c1.O=S(=O)([N-]S(=O)(=O)C(F)(F)F)C(F)(F)F shows activity coefficient of 2 or more.
NOT MET

Could you tell me if the measured activity coefficient of CC#N [acetonitrile] + CCCCCC[n+]1ccn(C)c1.O=S(=O)([N-]S(=O)(=O)C(F)(F)F)C(F)(F)F reaches 2 or more?
NOT MET

Test whether the compound CCCCc1ccccc1 [butylbenzene] + CCCCCC[n+]1ccn(C)c1.O=S(=O)([N-]S(=O)(=O)C(F)(F)F)C(F)(F)F records activity coefficient of 2 or higher.
MET

Would you say CCCCCCCCCCC [undecane] + CCCCCC[n+]1ccn(C)c1.O=S(=O)([N-]S(=O)(=O)C(F)(F)F)C(F)(F)F shows activity coefficient at minimum 2?
MET

###

Protocol description: activity coefficient (dimensionless); of the first substance listed, at infinite dilution; xn = mol fraction of the nth substance listed
Condition context: 322.85 K; Liquid; Chromatography; x1 = 0
Measurement name: activity coefficient
Reply: number alone, nothing else.

These recorded examples may help you get a feel for the data.
CCCCCCCC [octane] + CCCCCC[n+]1ccn(C)c1.O=S(=O)([N-]S(=O)(=O)C(F)(F)F)C(F)(F)F: 13.2
c1ccccc1 [benzene] + CCCCCC[n+]1ccn(C)c1.O=S(=O)([N-]S(=O)(=O)C(F)(F)F)C(F)(F)F: 0.773
CCC=O [propanal] + CCCCCC[n+]1ccn(C)c1.O=S(=O)([N-]S(=O)(=O)C(F)(F)F)C(F)(F)F: 0.444
CC(C)CO [2-methyl-1-propanol] + CCCCCC[n+]1ccn(C)c1.O=S(=O)([N-]S(=O)(=O)C(F)(F)F)C(F)(F)F: 1.9

Could you tell me which activity coefficient is on file for CCCCCCCCCC [decane] + CCCCCC[n+]1ccn(C)c1.O=S(=O)([N-]S(=O)(=O)C(F)(F)F)C(F)(F)F ?
25.6

# query: activity coefficient of entry ClC(Cl)Cl [trichloromethane] + CCCCCC[n+]1ccn(C)c1.O=S(=O)([N-]S(=O)(=O)C(F)(F)F)C(F)(F)F
0.69

If you can, please state the reported activity coefficient value of CC#N [acetonitrile] + CCCCCC[n+]1ccn(C)c1.O=S(=O)([N-]S(=O)(=O)C(F)(F)F)C(F)(F)F .
0.446

Request the reported activity coefficient associated with CCCC=O [butanal] + CCCCCC[n+]1ccn(C)c1.O=S(=O)([N-]S(=O)(=O)C(F)(F)F)C(F)(F)F
0.574

Would you mind telling me what activity coefficient value was observed for CCCCCC [hexane] + CCCCCC[n+]1ccn(C)c1.O=S(=O)([N-]S(=O)(=O)C(F)(F)F)C(F)(F)F ?
7.41
